- Assayed target: UniProt:P78536
- Sequence (P78536 215-824, species assumed): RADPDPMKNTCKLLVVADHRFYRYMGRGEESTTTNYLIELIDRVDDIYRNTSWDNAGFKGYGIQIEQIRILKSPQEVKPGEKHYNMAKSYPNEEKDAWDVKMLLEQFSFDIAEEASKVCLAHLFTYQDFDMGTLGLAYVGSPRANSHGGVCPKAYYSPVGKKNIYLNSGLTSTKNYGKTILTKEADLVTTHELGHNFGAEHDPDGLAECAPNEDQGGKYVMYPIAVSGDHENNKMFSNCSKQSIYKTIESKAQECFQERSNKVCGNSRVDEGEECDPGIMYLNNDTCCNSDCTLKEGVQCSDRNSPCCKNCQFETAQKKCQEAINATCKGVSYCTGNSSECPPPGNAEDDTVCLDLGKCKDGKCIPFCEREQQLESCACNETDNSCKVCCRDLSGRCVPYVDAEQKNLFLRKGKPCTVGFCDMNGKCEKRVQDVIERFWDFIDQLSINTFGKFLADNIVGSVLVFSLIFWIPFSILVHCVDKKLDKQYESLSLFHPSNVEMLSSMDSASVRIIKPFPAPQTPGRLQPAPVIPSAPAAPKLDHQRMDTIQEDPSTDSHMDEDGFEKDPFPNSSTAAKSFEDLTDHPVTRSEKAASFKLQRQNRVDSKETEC
Measure: IC50
Please provide the amount together with its unit, number first.

[Q] Bench note: what IC50 did CNC(=O)[C@H](Cc1c[nH]c2ccccc12)NC(=O)[C@@H](CC(=O)NO)CC(C)C [GM-6001, reference compound] show?
[A] 60 nM

----------
- Assayed target: Caspase-1 (Homo sapiens)
- Sequence (P29466 120-297 limits assumed, species assumed): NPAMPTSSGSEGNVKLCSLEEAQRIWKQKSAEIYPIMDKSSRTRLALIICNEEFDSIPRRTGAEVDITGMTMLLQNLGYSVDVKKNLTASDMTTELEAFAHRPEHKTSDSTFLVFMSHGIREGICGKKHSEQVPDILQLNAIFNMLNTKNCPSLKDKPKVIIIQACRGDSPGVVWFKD
- Sequence (P29466 317-404 limits assumed, species assumed): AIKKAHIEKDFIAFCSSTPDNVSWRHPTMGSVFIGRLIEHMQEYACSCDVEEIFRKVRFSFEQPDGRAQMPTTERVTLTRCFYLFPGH
Measure: pIC50
Worth noting: pIC50 values are minus log10 of concentrations stated in mol/L.

[Q] Request - read-out pIC50 | tested on Caspase-1 (Homo sapiens) | compound CC(=O)N[C@@H](Cc1ccc(O)cc1)C(=O)N[C@H](C(=O)N[C@@H](C)C(=O)N[C@H](C=O)CC(=O)O)C(C)C [Ac-YVAD-CHO, reference compound]
[A] 7.70
